The reported numbers originate from the RNAGym collection of RNA variant scans (doi:10.7554/elife.90254).

B1: OR4K15 (parent)
chain: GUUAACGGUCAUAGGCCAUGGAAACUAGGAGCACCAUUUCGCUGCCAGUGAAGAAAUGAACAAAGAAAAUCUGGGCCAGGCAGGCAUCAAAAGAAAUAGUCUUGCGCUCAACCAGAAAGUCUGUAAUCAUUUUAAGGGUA

- Variants of: B1
- Assay details: self-cleavage, relative activity (ratio to wild type); higher = more cleavage; in vitro, sequencing; the parent is a self-cleaving ribozyme
MET means recorded self-cleavage is 1 or above; NOT MET means it is below 1.

| Variant label | Discrete label |
| --- | --- |
| A13G A68G | NOT MET |
| C109U A117G | NOT MET |
| U3A A55C | MET |
| C35A A36U | NOT MET |
| A36C U132C | MET |
| A56U U127C | MET |
| A5G U43A | MET |
| G21A A140G | MET |
| U3A A96G | MET |
| A24G U131G | MET |
| A22G A140U | NOT MET |
